- targetDesc: Hordeum HPPD variant G407C (Hordeum vulgare, UniProt O48604, A164G/G407C/R146V/R147D/R148G)
- Construct: His (N); made in house; host or cells: E. coli BL21 (DE3)
- Sequence (O48604 whole entry R146V/R147D/R148G/A164G/G407C): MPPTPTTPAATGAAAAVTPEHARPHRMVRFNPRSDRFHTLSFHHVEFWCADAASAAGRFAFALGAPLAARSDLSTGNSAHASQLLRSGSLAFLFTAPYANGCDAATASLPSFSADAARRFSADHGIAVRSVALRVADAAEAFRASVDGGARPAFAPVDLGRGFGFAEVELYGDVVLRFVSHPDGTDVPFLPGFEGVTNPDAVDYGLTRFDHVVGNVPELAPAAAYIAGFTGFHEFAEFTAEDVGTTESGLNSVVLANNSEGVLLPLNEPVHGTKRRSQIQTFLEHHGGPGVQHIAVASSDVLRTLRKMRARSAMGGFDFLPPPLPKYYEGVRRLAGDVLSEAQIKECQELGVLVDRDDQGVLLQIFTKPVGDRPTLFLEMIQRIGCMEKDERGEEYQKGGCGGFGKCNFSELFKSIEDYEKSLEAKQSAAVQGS
- testDescription: HPPD activity assay, Hordeum HPPD mutant G407C
- Assay type: biochemical
- testSettings: normalized on Hordeum wild-type HPPD
Measured Normalized tolerance index TI of individual entries

| molecule | Normalized tolerance index TI |
| --- | --- |
| CC1=NOC(c2c(Cl)ccc(C3=C(O)c4ncccc4C(C)(C)S3(=O)=O)c2Cl)C1 (stereo not shown) | 2.7 |
| CC1(C)c2cccnc2C(O)=C(c2ccc(Cl)nc2Cl)S1(=O)=O | 2 |
| CC1(C)c2cccnc2C(O)=C(c2ccc(Br)cc2C(F)(F)F)S1(=O)=O | 4.3 |
| COCCOCc1c(Cl)ccc(C2=C(O)c3ncccc3C(C)(C)S2(=O)=O)c1Cl | 2.4 |

Value source: patent US20140357487A1
